- System: HT-29
- experiment: Cytotoxicity against human HT-29 cells assessed as cell growth level at 10 uM after 48 hrs by sulforhodamine B assay
- Format: functional
measurement kind: Activity (%)

O=C1c2ccccc2C(=O)c2cc3oc(SCc4ccc(F)cc4)nc3cc21    91.18
CN(C)CCCSc1nc2cc3c(cc2o1)C(=O)c1ccccc1C3=O    64.03
CCSc1nc2cc3c(cc2o1)C(=O)c1ccccc1C3=O    89.08
O=C(CCN1CCCC1)Nc1cc2c(cc1O)C(=O)c1ccccc1C2=O    67.12

----------
- System: HCC 2998
- experiment: Cytotoxicity against human HCC2998 cells assessed as cell growth level at 10 uM after 48 hrs by sulforhodamine B assay
- Format: functional
Listing: Activity of selected compounds
measurement kind: Activity (%)

CN(C)CCCSc1nc2cc3c(cc2o1)C(=O)c1ccccc1C3=O    100.1
O=C1c2ccccc2C(=O)c2cc3oc(SCc4ccc(F)cc4)nc3cc21    108.69
CCSc1nc2cc3c(cc2o1)C(=O)c1ccccc1C3=O    101.65
O=C(CCN1CCCC1)Nc1cc2c(cc1O)C(=O)c1ccccc1C2=O    98.08

----------
- Tested on: IGROV-1
- experiment: Cytotoxicity against human IGROV1 cells assessed as cell growth level at 10 uM after 48 hrs by sulforhodamine B assay
- Format: functional
measurement kind: Activity (%)

O=C1c2ccccc2C(=O)c2cc3oc(SCc4ccc(F)cc4)nc3cc21    87.04
CN(C)CCCSc1nc2cc3c(cc2o1)C(=O)c1ccccc1C3=O    71.71
CCSc1nc2cc3c(cc2o1)C(=O)c1ccccc1C3=O    79.05
O=C(CCN1CCCC1)Nc1cc2c(cc1O)C(=O)c1ccccc1C2=O    112.79

----------
Parameter: Activity. Scope: all listed entries.
- Tested on: NCI-H322M
- experiment: Cytotoxicity against human NCI-H322M cells assessed as cell growth level at 10 uM after 48 hrs by sulforhodamine B assay
- Assay type: functional
measurement kind: Activity

O=C(CCN1CCCC1)Nc1cc2c(cc1O)C(=O)c1ccccc1C2=O    108.8%
CCSc1nc2cc3c(cc2o1)C(=O)c1ccccc1C3=O    77.88%
O=C1c2ccccc2C(=O)c2cc3oc(SCc4ccc(F)cc4)nc3cc21    85.42%
CN(C)CCCSc1nc2cc3c(cc2o1)C(=O)c1ccccc1C3=O    85.16%

----------
- System: CCRF-CEM
- experiment: Cytotoxicity against human CCRF-CEM cells assessed as cell growth level at 10 uM after 48 hrs by sulforhodamine B assay
- Assay type: functional
measurement kind: Activity

CCSc1nc2cc3c(cc2o1)C(=O)c1ccccc1C3=O    90.48%
O=C1c2ccccc2C(=O)c2cc3oc(SCc4ccc(F)cc4)nc3cc21    86.28%
O=C(CCN1CCCC1)Nc1cc2c(cc1O)C(=O)c1ccccc1C2=O    87.09%
CN(C)CCCSc1nc2cc3c(cc2o1)C(=O)c1ccccc1C3=O    55.33%
